// data source = PubChem BioAssay (NCI)

# System: MDA-MB-435
# assay text: NCI tumour cell line growth inhibition, 48 h
quantity kind: TGI

Solved entries (count: 10):
- molecule: "O=c1cc(-c2cc(O)c(O)c(-c3c(O)cc4oc(-c5ccc(O)c(O)c5)cc(=O)c4c3O)c2)oc2cc(O)cc(O)c12"
  measurement: "> 25 µM"
- molecule: "COC(=O)C1(Cc2ccc3c(c2)CCC3)Cc2ccccc2C1"
  measurement: "> 100 µM"
- molecule: "C=C1C(O)CC[C@]2(C)C1C1OC(C)(C)O[C@]13CC(=O)C(C)=C([C@H]1OC(C)(C)OC12)C3(C)C (some centres not stated)"
  measurement: "> 100 µM"
- molecule: "CCN(C(=O)/C=C/c1ccco1)c1ccccc1"
  measurement: "> 100 µM"
- molecule: "N#Cc1nc(NC(=O)c2ccccc2C(=O)O)c(C#N)[nH]1"
  measurement: "> 100 µM"
- molecule: "c1c[nH]c(CN2CCOCC2)n1"
  measurement: "> 100 µM"
- molecule: "CNC(=O)c1nn(C)c2c1C(C)(C)Cc1cnc(Nc3ccc(N4CCN(C)CC4)cc3)nc1-2"
  measurement: "> 10 µM"
- molecule: "CC(=O)c1cnc2oc3ccc(O)cc3c2c1-c1ccccc1"
  measurement: "> 100 µM"
- molecule: "CCC(C(=O)C(=O)OC)P1(=O)OC(C)(C)CN1C(C)(C)C (configuration not stated)"
  measurement: "> 100 µM"
- molecule: "CC(=O)OC1C(COC(=O)c2ccccc2)OC(Nc2ncc(-c3ccc(Br)cc3)s2)C(OC(=O)c2ccccc2)C1OC(=O)c1ccccc1 (configuration not stated)"
  measurement: "> 100 µM"

Look up TGI of CC(=O)OC1CCC2C3CCc4c(C)ccc(OS(=O)(=O)c5ccccc5)c4C3CCC12C (configuration not stated) and report it. > 100 µM

Look up TGI of `COc1ccc(CN2C3CC2CN(c2ccc(-c4cc(OCC(C)(C)O)cn5ncc(C#N)c45)cn2)C3)cn1` and report it. > 100 µM
